Assay Summary: murine CD8 T cell vesicle adhesion modulation – mouse 2C CD8+ T cells, flow cytometry, primary screen (AID 2052);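 also: values below 100% mean blocked vesicle binding to the CD8+ T cells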
Measurement Conditions: 2C CD8+ T cell-vesicle binding, at 7 µM
Among all 330,000 compounds or so, about 220 (0.067%) were called active.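 The calls were made as follows: active = response, share of CD8 T cells binding vesicles, and their 90th percentile fluorescence all below set limits (cut at about 80% in these data, passing the limit was not always enough); inactive = the rest, inconclusive results apart.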 This excerpt belongs to a sample that is enriched for actives.
Pick one: Y (active), N (inactive)

Some solved entries appear below for comparison.
{"Compound": "O=C(c1ccccc1)c1ccc2nc(N3CCCCC3)c3nncn3c2c1", "Qualitative Label": "N"}
{"Compound": "CC(Oc1ccc(Br)cc1)C(=O)NCC(c1ccco1)N1CCCCC1 (centres undefined)", "Qualitative Label": "N"}
{"Compound": "COc1ccc(NC(C(=O)Nc2cccc(C(C)=O)c2)c2ccccc2)cc1 (centres undefined)", "Qualitative Label": "N"}
{"Compound": "CN(C)N=Nc1ccc2nc[nH]c2c1", "Qualitative Label": "N"}
{"Compound": "CC(=O)c1ccc(N2CCN(CC(=O)Nc3ccccc3N3CCOCC3)CC2)cc1", "Qualitative Label": "N"}

## Input Returns: the outcome recorded for COc1ccc(N2CC(C(=O)N[C@@H](C)C(=O)N3CCCCC3)CC2=O)cc1 (some centres undefined) in this assay.
## Output N

## Input Try CCc1ccccc1NC(=O)[C@@H]1CCC(=O)N1C1OC(=O)c2c1ccc(OC)c2OC (some centres undefined) next.
## Output N

## Input Try O=C(NC1CCCC1)C(c1c(F)cccc1Cl)N(C(=O)c1csnn1)C1CC1 (centres undefined) next.
## Output N

## Input Try "C1=C(N2CCOCC2)/C(=C/c2nc3ccccc3[nH]2)CC1" next.
## Output N
